System: Tov112D
Assay Protocol: Primary qHTS to identify gynecologic anti-cancer compounds using libraries of approved drugs and bioactive compounds (AID 1345084); further: nearly all actives have a fitted effect of over 55% in size
Stated Conditions: Gynecologic cancer cell panel viability, ATPlite luminescence, 48 h; series mostly up to 57.5 µM
Records with an inconclusive call do not appear. The source made the active and inactive calls. The call rests on the fitted dose curve; in most records, active means well fitted cell-killing curve with a large enough effect; inconclusive means small, poorly fitted or top-dose-only effect, or effect the other way; inactive means flat fitted curve, though single readings scatter.
Thanks in advance; please answer with one of these: active, inactive

Use the examples below as a reference point.
1. CNS(=O)(=O)c1ccccc1Nc1nc(Nc2ccc(N3CCN(C)CC3)cc2OC)ncc1Br
active
2. Cc1cnc(-c2ccccc2C(C)C)nc1NCc1ccc(-n2ccnn2)cc1
inactive
3. C=C1C(=O)O[C@@H]2C[C@H](C)C3=CC(=O)[C@H](O)[C@@]3(C)C[C@H]12
inactive
4. CN1CCN(C2=Nc3ccccc3Nc3ccc(Cl)cc32)CC1
inactive

Query: Fill in: this test's call for COc1cccc(N2CCN(C3=Nc4c(F)cccc4[C@H](CC(=O)O)N3c3cc(C(F)(F)F)ccc3OC)CC2)c1 is ___
Reply: inactive

Query: Fill in: this test's call for CCc1cccc(CC)c1-n1c(C=C(C)C)c(C(=O)N2CCNCC2)cc(-c2nc(-c3ccc(C(F)(F)F)cc3)cs2)c1=O is ___
Reply: inactive

Query: Fill in: this test's call for CC1(C=O)CCCC2(C)C1CCC13CC(CO)C(CCC12)C3 (centres undefined) is ___
Reply: inactive

Query: Fill in: this test's call for C=C(C)Cn1c(SCC(=O)c2cccs2)nc2sc3c(c2c1=O)CCCC3 is ___
Reply: inactive

Query: Fill in: this test's call for C[C@@H](O[C@H]1OCCN(Cc2nn(P(=O)(O)O)c(=O)[nH]2)[C@H]1c1ccc(F)cc1)c1cc(C(F)(F)F)cc(C(F)(F)F)c1 is ___
Reply: inactive

###

Assay Protocol: Confirmatory screen NINDS Rhodamine qHTS for Zika virus inhibitors (AID 1347161); further: nearly all actives have a fitted effect of over 60% in size
Stated Conditions: purified enzyme assay, Rhodamine110 substrate fluorescence, 15 min; series mostly up to 114 µM
Results filed as inconclusive are left out. Activity calls are given as the source filed them. The call rests on the fitted dose curve; in most records, active means well fitted inhibition curve with a large enough effect; inconclusive means small, poorly fitted or top-dose-only effect; inactive means no such curve, though single readings can be large or run the other way.
Thanks in advance; please answer with one of these: active, inactive

Query: Fill in: this test's call for O=C(O)c1ccc(N2C(=O)/C(=C/c3ccc(-c4ccc([N+](=O)[O-])cc4)o3)C=C2c2ccccc2)cc1 is ___
Reply: active

Query: Fill in: this test's call for CC1=C(C(=O)OC2CCCCC2)C(c2ccc([N+](=O)[O-])cc2)C2=C(CC(C)(C)CC2=O)N1 (configuration not stated) is ___
Reply: inactive

Query: Fill in: this test's call for COc1ccc2cc(-c3cc(-c4cc(Cl)cc(Cl)c4)nn3C(C)c3ccc(C(=O)NCCC(=O)O)cc3)ccc2c1 (configuration not stated) is ___
Reply: active

###

System: Nanoluciferase (engineered Oplophorus gracilirostris luciferase)
Assay Protocol: Primary Nanoluciferase (NLuc) qHTS assay for identification of artifact compounds. (AID 1845222); further: potency means the concentration at half of the fitted maximal effect
Stated Conditions: NLuc-conditioned medium, Nano-Glo luminescence, 5 min; series mostly up to 54.1 µM
Active and inactive are the calls of the source. The call rests on the fitted dose curve; in most records, active means well fitted inhibition curve with a large enough effect; inconclusive means small, poorly fitted or top-dose-only effect; inactive means flat fitted curve, though single readings scatter.
Please go through the items and note down their Potency.

1) Cc1noc(-c2ccc(-c3ccc(CC(=O)O)cc3)cc2)c1NC(=O)O[C@H](C)c1ccccc1Cl
9.53 µM (active)

Here are 3 compounds. What values of Potency were reported for them?
1. Cc1nnc(-c2ccc(-c3ccc(C(=O)Nc4ccc(O)c(N5CCN(C)CC5)c4)cc3)c(C)c2)o1
2. C=C1C(=O)O[C@@H]2[C@H]3C(C)=CC(=O)C3=C(C)[C@@H](OC(=O)/C(C)=C\C)[C@H](O)[C@@H]12
3. COc1ccc(-c2ccccc2)cc1NS(=O)(=O)c1cc(Cl)cc(Cl)c1O

Reply:
["1.51 µM (active)", "9.31 µM (active)", "7.38 µM (active)"]

This collection of values is drawn from PubChem BioAssay (NCATS).
